// values below are reported IC50
Tested on: CMV AD-169 strain
ASSAY_DETAILS: Anti-CMV activity: plaque reduction in HEL cells, AD-169 strain
Type: cell-based, human cytomegalovirus (CMV)
CONDITIONS: Human betaherpesvirus 5, AD169, HEL; Table 2; reduce virus plaque formation by 50%; virus input 100 PFU; read-out: IC50 CMV AD-169 Strain

Please review the following examples before continuing.
{"COMPOUND": "CO[C@@H]1[C@@H](OC)[C@H](Sc2ccccc2)O[C@@H]2COCC=CCO[C@@H]12", "VALUE_REPORTED": "> 50 µg/mL"}
{"COMPOUND": "CO[C@@H]1[C@@H](OC)[C@H](Sc2ccccc2)O[C@@H]2COC(=O)CCCC/C=C\\CCCCC(=O)O[C@@H]12", "VALUE_REPORTED": "> 20 µg/mL"}
{"COMPOUND": "CO[C@@H]1[C@@H](OC)[C@H](Cc2ccccc2)O[C@@H]2COC(=O)CC/C=C/CCC(=O)O[C@@H]12", "VALUE_REPORTED": "> 5 µg/mL"}

Asked: # input compound: CO[C@@H]1[C@@H](OC)[C@H](Cc2ccccc2)O[C@@H]2COC(=O)CCCCCCCCC=CCCCCCCCCC(=O)O[C@@H]12 [KPE00001031E] ; wanted: its IC50
Given back: > 5 µg/mL
